pKi: −log10 of the molar value.
The listing below reports pKi for compounds tested on CRTH2 receptor (Homo sapiens, UniProt Q9Y5Y4).
Sequence (Q9Y5Y4 whole entry): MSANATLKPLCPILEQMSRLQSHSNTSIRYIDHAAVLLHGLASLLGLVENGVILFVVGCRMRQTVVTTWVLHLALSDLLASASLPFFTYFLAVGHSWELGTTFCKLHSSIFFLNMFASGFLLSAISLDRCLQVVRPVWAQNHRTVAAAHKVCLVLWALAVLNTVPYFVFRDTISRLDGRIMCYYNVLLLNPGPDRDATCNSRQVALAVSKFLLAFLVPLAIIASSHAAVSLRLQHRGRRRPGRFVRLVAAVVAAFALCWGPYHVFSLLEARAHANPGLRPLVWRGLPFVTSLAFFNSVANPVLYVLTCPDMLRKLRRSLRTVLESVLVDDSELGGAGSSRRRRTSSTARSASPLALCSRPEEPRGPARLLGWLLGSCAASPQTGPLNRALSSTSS
Measurement kind: pKi

[[record]]
compound = "Cc1nc2c(Cl)ccc(OCC(=O)O)c2c(C)c1[S+]([O-])c1ccc(Cl)cc1 (stereo not shown)"
value = "> 7.00"

[[record]]
compound = "Cc1c(Cc2ccc(Cl)cc2Cl)c(OC(F)F)nc2c(F)ccc(OCC(=O)O)c12"
value = "> 7.00"

[[record]]
compound = "Cc1nc2c(Cl)ccc(OCC(=O)O)c2c(C)c1Sc1ccc(Cl)cc1"
value = "> 7.00"

[[record]]
compound = "Cc1nc2c(Cl)ccc(OCC(=O)O)c2c(C)c1Oc1ccc(Cl)cc1"
value = "> 7.00"

[[record]]
compound = "Cc1c(Cc2ccc(F)cc2)c(OC(F)F)nc2c(F)ccc(OCC(=O)O)c12"
value = "> 7.00"

[[record]]
compound = "CCc1nc2c(Cl)ccc(OCC(=O)O)c2c(OC(F)F)c1Cc1ccc(Cl)cc1"
value = "> 7.00"

[[record]]
compound = "Cc1nc2cc(Cl)cc(CC(=O)O)c2c(C)c1Cc1ccc(Cl)cc1"
value = "> 7.00"

[[record]]
compound = "CCc1nc2c(F)ccc(O[C@@H](C)C(=O)O)c2c(OC(F)F)c1Cc1ccc(C(=O)N2CCCC2)cc1Cl"
value = "> 7.00"

[[record]]
compound = "Cc1nc2c(Cl)ccc(OCC(=O)O)c2c(C)c1S(=O)(=O)c1ccc(Cl)cc1"
value = "> 7.00"

[[record]]
compound = "Cc1nc2c(Cl)ccc(OCC(=O)O)c2cc1Cc1ccc(Cl)cc1"
value = "> 6.00"

[[record]]
compound = "Cc1nc2c(Cl)ccc(CC(=O)O)c2c(C)c1Cc1ccc(S(C)(=O)=O)cc1"
value = "> 6.00"

[[record]]
compound = "CCc1nc2c(Cl)ccc(OCC(=O)O)c2c(CC)c1Cc1ccc(S(C)(=O)=O)cc1"
value = "> 7.00"

[[record]]
compound = "CCc1nc2c(F)ccc(OCC(=O)O)c2c(OC(F)F)c1Cc1ccc(F)cc1Cl"
value = "> 7.00"

[[record]]
compound = "Cc1nc2c(Cl)ccc(CC(=O)O)c2c(C)c1Sc1ccc(Cl)cc1"
value = "> 7.00"

[[record]]
compound = "CCc1nc2c(F)ccc(OCC(=O)O)c2c(OC(F)F)c1Cc1ccc(F)cc1"
value = "> 7.00"

[[record]]
compound = "Cc1nc2c(Cl)ccc(OCC(=O)O)c2c(OC(F)F)c1Cc1ccc(S(C)(=O)=O)cc1"
value = "> 7.00"


Hello, the source for this data is patent US7858640B2, in case you need it.
